target: T1, SIRPα V1-his (ACRO, Cat #SIA-H5225) (human, UniProt P78324 31-370); assay: SPR (Biacore), antibody captured by anti-Fc on CM5, 50 nM SIRPα V1-his injected, 1:1 model
T1 construct: not shown: His tag
T1 sequence (P78324 31-370 limits assumed): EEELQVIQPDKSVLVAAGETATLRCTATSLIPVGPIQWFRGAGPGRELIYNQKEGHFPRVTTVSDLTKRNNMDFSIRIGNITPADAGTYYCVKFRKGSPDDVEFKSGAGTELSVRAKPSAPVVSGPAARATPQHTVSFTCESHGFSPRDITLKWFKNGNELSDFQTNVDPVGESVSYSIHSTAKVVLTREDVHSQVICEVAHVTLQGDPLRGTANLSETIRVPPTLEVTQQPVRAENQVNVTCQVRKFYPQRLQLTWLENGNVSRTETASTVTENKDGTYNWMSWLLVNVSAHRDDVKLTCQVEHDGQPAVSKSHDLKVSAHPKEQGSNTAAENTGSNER
property label: koff (s⁻¹)
Write the value in s⁻¹ as a bare number.

binder	koff / s⁻¹
Z5 (antibody, IgG1, V domains shown, also called humanized variant Z5) VH: QVQLQESGPGLVKPSQTLSLTCTVSGFSLTGYGVNWIRQPPGKGLEWIGIIWGDGSTDYNSALKSRVTISKDTSKNQVFLKLSSVTAADTAVYYCARAGKMDYWGQGTTVTVSS VL: DIVLTQSPASLAVSPGQRATITCRASESVDSYGNSFMHWYQQKPGQPPKLLIYLASNLESGVPARFSGSGSRTDFTLTINPVEANDAANYYCQQNNEYPWTFGGGTKVEIK	0.0208
Z7 (antibody, IgG1, V domains shown, also called humanized variant Z7) VH: QVQLQESGPGLVKPSQTLSLTCTVSGFSLTGYGVNWIRQPPGKGLEWIGIIWGDGSTDYNSALKSRVTISKDTSKNQVFLKLSSVTADDTARYYCARAGKMDYWGQGTTVTVSS VL: DIVLTQSPASLAVSPGQRATITCRASESVDSYGNSFMHWYQQKPGQPPKPLIYLASNLESGVPARFSGSGSGTDFTLTINPVEANDAANYYCQQNNEYPWTFGGGTKVEIK	0.00151
Z4 (antibody, IgG1, V domains shown, also called humanized variant Z4) VH: QVQLQESGPGLVKPSQTLSLTCTVSGFSLTGYGVNWIRQPPGKGLEWIGIIWGDGSTDYNSALKSRVTISKDTSKNQVFLKLSSVTAADTAVYYCARAGKMDYWGQGTTVTVSS VL: DIVLTQSPASLAVSPGQRATITCRASESVDSYGNSFMHWYQQKPGQPPKPLIYLASNLESGVPARFSGSGSGTDFTLTINPVEANDAANYYCQQNNEYPWTFGGGTKVEIK	0.00154
AD4-12 (antibody, V domains shown, Mouse variable domains joined to human kappa and human IgG1 constant regions (wild type = AD4-12-G1, L234A/L235A = AD4-12-G1lala); also called AD4-12-G1; AD4-12-G1lala) VH: EVQLEESGPGLVAPSQSLSITCTVSGFSLTGYGVNWVRQPPGKGLEWLGIIWGDGSTDYNSALKSRLSISKDNSKSQVFLKMNSLQSDDTARYYCARAGKMDYWGQGTSVTVSS VL: DIVLTQSPASLAVSLGQGATISCRASESVDSYGNSFMHWYQQKPGQPPKPLIYLASNLESGVPARFSGSGSRTDFTLTIDPVEADDAATYYCQQNNEYPWTFGGGTKLEIK	0.00113

Turning now to a further binder:
# koff of Z3 (antibody, IgG1, V domains shown, also called humanized variant Z3) VH: QVQLQESGPGLVKPSQTLSLTCTVSGFSLTGYGVNWIRQPPGKGLEWIGIIWGDGSTDYNSALKSRVTISVDTSKNQVFLKLSSVTAADTAVYYCARAGKMDYWGQGTTVTVSS VL: DIVLTQSPASLAVSPGQRATITCRASESVDSYGNSFMHWYQQKPGQPPKPLIYLASNLESGVPARFSGSGSRTDFTLTINPVEANDAANYYCQQNNEYPWTFGGGTKVEIK = 0.00292

Hello, the source for this data is patent US20240368301A1, in case you need it.
